# IC50 values compiled below
study system: recombinant 17bHSD13 (N2-K300) (Homo sapiens (Human), UniProt Q7Z5P4)
Sequence (Q7Z5P4 2-300): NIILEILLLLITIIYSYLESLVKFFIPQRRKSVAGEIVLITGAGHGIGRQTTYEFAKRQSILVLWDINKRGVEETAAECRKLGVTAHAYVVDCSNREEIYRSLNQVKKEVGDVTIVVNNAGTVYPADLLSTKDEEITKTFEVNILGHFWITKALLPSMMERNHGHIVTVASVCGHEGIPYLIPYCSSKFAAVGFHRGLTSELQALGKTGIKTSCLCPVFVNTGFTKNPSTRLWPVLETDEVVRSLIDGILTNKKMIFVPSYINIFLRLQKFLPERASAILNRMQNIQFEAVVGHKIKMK
test: In Vitro 17bHSD13 Enzyme Assay
experimental context: 80 nM 17bHSD13, 0.5 mM NAD, 20 μM Estradiol, 2.5 h; estradiol to estrone by LC-MS/MS
observed property: IC50 (nM)

molecule=N#Cc1ccc2c(c1)CCN(C(=O)c1noc(-c3cc(F)c(F)c(O)c3F)n1)C2 experimental_value=165
molecule=O=C(Nc1ccnn1C1CCCCC1)c1cc(-c2ccc(F)c(O)c2)on1 experimental_value=114
molecule=N#Cc1c(C(=O)N2CC[C@@H](c3ccc(Cl)cc3)C2)noc1-c1cc(F)c(F)c(O)c1F experimental_value=32
molecule=O=C(c1noc(-c2cc(F)c(F)c(O)c2F)n1)N1CCc2ccccc2C1 experimental_value=48
molecule="CC(C)CC1CN(C(=O)c2noc(-c3cc(F)c(F)c(O)c3F)n2)CCO1 (centres unmarked)" experimental_value=183
